Target: human VDR (Homo sapiens)
Sequence (P11473 1-427): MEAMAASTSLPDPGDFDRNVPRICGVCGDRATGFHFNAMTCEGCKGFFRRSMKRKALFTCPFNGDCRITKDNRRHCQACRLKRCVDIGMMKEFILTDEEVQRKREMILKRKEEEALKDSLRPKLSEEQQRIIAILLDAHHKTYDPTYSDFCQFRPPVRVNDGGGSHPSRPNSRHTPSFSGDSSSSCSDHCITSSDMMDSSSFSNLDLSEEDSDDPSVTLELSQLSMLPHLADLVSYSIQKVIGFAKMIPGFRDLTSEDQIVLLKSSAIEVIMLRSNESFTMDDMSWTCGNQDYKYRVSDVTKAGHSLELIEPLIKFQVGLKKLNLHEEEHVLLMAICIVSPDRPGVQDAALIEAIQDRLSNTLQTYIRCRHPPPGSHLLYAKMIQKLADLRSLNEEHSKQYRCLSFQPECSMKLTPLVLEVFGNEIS
Assay: Vitamin D3 receptor-antagonist activity: human osteocalcin promoter luciferase reporter in HOS cells transfected with human VDR and human RXR
Conditions: luciferase activity in HOS cells, with 1α,25-dihydroxyvitamin D3 1×10^−8 M, 24 hours
metric name: IC50

Sample answers from the record:
molecule	IC50
C=C1/C(=C\C=C2/CCC[C@]3(C)[C@@H]([C@H](C)CC4CC(C)(O)C(=O)N4Cc4cc(OCC)cc(OCC)c4)CC[C@@H]23)C[C@@H](O)[C@H](C)[C@@H]1O (single isomer, unassigned) [Compound No. 41c]	52.7 nM
C=C1/C(=C\C=C2/CCC[C@]3(C)[C@@H]([C@H](C)CC4CC(C)(O)C(=O)N4CCc4ccccc4)CC[C@@H]23)C[C@@H](O)[C@H](C)[C@@H]1O (stereo partly drawn) [Compound No. 11a]	27.5 nM
C=C1/C(=C\C=C2/CCC[C@@]3(C)C2CC[C@@H]3[C@H](C)CC2CC(C)(O)C(=O)N2Cc2cc(OCC)cc(OCC)c2)C[C@@H](O)[C@H](CCCO)[C@@H]1O (stereo partly drawn) [Compound No. 42c]	75 nM

// for each molecule in input: emit IC50
1. C=C1/C(=C\C=C2/CCC[C@]3(C)[C@@H]([C@H](C)CC4CC(C)(O)C(=O)N4Cc4cc(OCC)cc(OCC)c4)CC[C@@H]23)C[C@@H](O)[C@H](OCCCO)[C@@H]1O (stereo partly drawn) [Compound No. 43c]
2. C=C1/C(=C\C=C2/CCC[C@]3(C)[C@@H]([C@H](C)C[C@H]4C[C@](C)(O)C(=O)N4CCc4ccccc4)CC[C@@H]23)C[C@@H](O)[C@H](OCCCO)[C@@H]1O [Compound No. 13a]
3. C=C1/C(=C\C=C2/CCC[C@]3(C)[C@@H]([C@H](C)C[C@H]4C[C@](C)(O)C(=O)N4CCc4ccccc4)CC[C@@H]23)C[C@@H](O)[C@H](CCCO)[C@@H]1O [Compound No. 12a]

1: 95.8 nM; 2: 83.3 nM; 3: 17.4 nM
